Molecular target: CaFus1
Assay: SPOT peptide array binding signal intensity (averaged, normalized) (arbitrary units (background-subtracted, floor 0; scale differs between SH3 domains)); higher = stronger binding of the SH3 domain to the peptide
Rule: SPOT peptide array binding signal intensity of 500 or more gives satisfied; anything lower gives not satisfied.

1) WRPRIVPILPYITRL	not satisfied
2) NSVPIMPTLPPRPYI	not satisfied
3) AAHKTKPSIPPKKVE	not satisfied
4) TYNRTAFQIPGDQSI	not satisfied
5) KKAPPPVVKPKPRNF	not satisfied
6) RRSKSLPTTPGIRSG	not satisfied
7) LKQRFFLMFPKSIIW	satisfied
8) LYKRKPILLPDPKPL	not satisfied
9) QTMRQAPKRPDADVA	satisfied
10) RTRRRPPPPPIPSTQ	not satisfied
11) IRMPSNPALPKKLLN	satisfied
12) KTITLEVESSDTIDN	not satisfied
13) ISNFVPPNLPMRRFK	not satisfied
14) KDKKTKPTPPPKPSH	not satisfied
15) APERAVPILPPRNNV	not satisfied
16) FYHRPAPKPPVTKKV	not satisfied
17) SRQAIPPPVPNRPGG	not satisfied
18) IAPIPMPKPNPTHIS	not satisfied
19) GPPPPLPPPLFPSSS	not satisfied
20) IVNKPLPPLPVAGSS	not satisfied
21) ISRRRLPVIMHRLKM	satisfied
22) LLLLFVPDSPYDPAI	satisfied
23) TEVPIPRRPPPPQAA	not satisfied
